Assignment: determine reported 2-AG accumulation, % of vehicle control at 1 µM for the given compounds.
# tested.system: MGL (Rattus norvegicus, UniProt Q8R431)
# Construct: one g rat brain was homogenized using a Polytron homogenizer; from tissue; host or cells: rat brain homogenate
# Sequence (Q8R431 1-303): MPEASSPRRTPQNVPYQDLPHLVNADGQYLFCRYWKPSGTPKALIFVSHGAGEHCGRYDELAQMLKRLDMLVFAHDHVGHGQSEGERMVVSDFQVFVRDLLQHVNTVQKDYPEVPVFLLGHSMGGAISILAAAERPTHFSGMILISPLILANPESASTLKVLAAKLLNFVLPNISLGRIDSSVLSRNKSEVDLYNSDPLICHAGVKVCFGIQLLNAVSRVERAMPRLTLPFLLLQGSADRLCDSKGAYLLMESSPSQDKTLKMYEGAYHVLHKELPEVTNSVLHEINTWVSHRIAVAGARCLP
# assay.method.text: 2-AG accumulation assay in rat brain homogenate
# Assay type: biochemical
# experimental.parameters: rat brain homogenate; compound 1 μM; 2-AG accumulation as percent of vehicle; read-out: Rat Brain 2AG % VehCntrl (%) @ 1 μM
Give bare numbers, in %.

Answered examples (2):
Cn1ccc2cc(C(=O)N3CC(N4CCN(C(=O)c5nccs5)CC4)C3)cc(-c3cccc(F)c3)c21	609
O=C(c1ccc2c(c1)CCN2c1ccc(F)cc1)N1CC(N2CCN(C(=O)c3ccc[nH]3)CC2)C1	508

Bench note: what 2-AG accumulation, % of vehicle control at 1 µM did O=C(c1nccs1)N1CCN(C2CN(C(=O)c3sc4ccc(Cl)cc4c3C(F)(F)F)C2)CC1 show?
648

----------
# tested.system: purified wild type MGL (wt-MGLL 6H-11-313) (Homo sapiens)
# Sequence (Q99685 1-303): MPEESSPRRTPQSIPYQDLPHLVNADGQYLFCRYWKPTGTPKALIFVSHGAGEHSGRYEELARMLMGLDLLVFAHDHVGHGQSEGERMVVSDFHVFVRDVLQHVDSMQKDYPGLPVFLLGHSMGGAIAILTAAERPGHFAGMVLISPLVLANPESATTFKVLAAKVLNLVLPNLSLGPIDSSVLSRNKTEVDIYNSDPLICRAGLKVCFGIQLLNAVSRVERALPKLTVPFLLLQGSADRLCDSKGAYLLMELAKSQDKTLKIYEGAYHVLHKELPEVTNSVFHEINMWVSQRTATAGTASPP
Task for the reader: assign each of the following compounds its reported IC50.

In the examples that follow, each entry is paired with its recorded IC50.
O=C(c1ccc(-c2cccc(C(F)(F)F)c2)cc1)N1CC(N2CCN(C(=O)c3ccc(Br)o3)CC2)C1	< 5 nM
O=C(c1ccc2c(ccn2-c2ccc(C(F)(F)F)cc2)c1)N1CC(N2CCN(C(=O)c3ccc[nH]3)CC2)C1	< 5 nM
O=C(c1cc2cc(-c3ccccc3)ccc2o1)N1CC(N2CCN(C(=O)c3nccs3)CC2)C1	< 5 nM
CC(=O)N1CC[C@@H](c2ccccc2C(=O)N2CC(N3CCN(C(=O)c4ccccc4)CC3)C2)C1	> 16700 nM

Reported IC50 for Cc1cc(C(=O)N2CC(N3CCN(C(=O)c4nccs4)CC3)C2)cc2ccn(-c3ccc(F)cc3)c12 : what is it?
< 5 nM

----------
# tested.system: mutant MGL (Homo sapiens, UniProt Q99685, L169S/L176S)
# Sequence (Q99685 1-303 L169S/L176S): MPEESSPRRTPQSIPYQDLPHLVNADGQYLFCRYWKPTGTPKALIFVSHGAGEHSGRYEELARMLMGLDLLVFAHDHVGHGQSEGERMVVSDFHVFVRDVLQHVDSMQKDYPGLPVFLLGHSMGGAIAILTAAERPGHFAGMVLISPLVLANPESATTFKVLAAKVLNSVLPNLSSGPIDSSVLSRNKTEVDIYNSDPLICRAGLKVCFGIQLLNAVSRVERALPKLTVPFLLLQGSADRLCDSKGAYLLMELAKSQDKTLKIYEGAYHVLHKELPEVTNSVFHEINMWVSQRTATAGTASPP
# assay.method.text: MGL ThermoFluor assay - mutant
# Type: binding
# experimental.parameters: compound concentration measured by qNMR, read-out: MGL mutant ThermoFluor qKd (using qNMR conc.)
pKd: −log10 of the molar value.
If the reported pKd equals or exceeds 7, assign label 1. If not, assign label 0.

Study these solved cases before continuing.
O=C(c1ccc2c(c1)ncn2C1CCC(F)(F)CC1)N1CC(N2CCN(C(=O)c3cscn3)CC2)C1	label 0
O=C(c1ccc(Sc2cccc(Cl)c2)cc1)N1CC(N2CCN(C(=O)C(F)(F)F)CC2)C1	label 0
O=C(c1ccc2c(ccn2CC(F)F)c1)N1CC(N2CCN(C(=O)c3nccs3)CC2)C1	label 1
CC(c1ccccc1)n1cc2cc(C(=O)N3CC(N4CCN(C(=O)c5nccs5)CC4)C3)ccc2n1 (stereo not shown)	label 1
Cn1cc(Cc2ccc(F)cc2)c2ccc(C(=O)N3CC(N4CCN(C(=O)c5nccs5)CC4)C3)cc21	label 1

Record O=C(c1ccc2cnn(Cc3ccc(F)cc3)c2c1)N1CC(N2CCN(C(=O)c3nccs3)CC2)C1 ; criterion: pKd no lower than 7. Met?
label 0

And what about the compound O=C(c1ccc2c(cnn2Cc2cccc(C(F)(F)F)c2)c1)N1CC(N2CCN(C(=O)c3nccs3)CC2)C1 ?
label 1

----------
# tested.system: MGL (Rattus norvegicus)
# Construct: one g rat brain was homogenized using a Polytron homogenizer; from tissue; host or cells: rat brain homogenate
# Sequence (Q8R431 1-303): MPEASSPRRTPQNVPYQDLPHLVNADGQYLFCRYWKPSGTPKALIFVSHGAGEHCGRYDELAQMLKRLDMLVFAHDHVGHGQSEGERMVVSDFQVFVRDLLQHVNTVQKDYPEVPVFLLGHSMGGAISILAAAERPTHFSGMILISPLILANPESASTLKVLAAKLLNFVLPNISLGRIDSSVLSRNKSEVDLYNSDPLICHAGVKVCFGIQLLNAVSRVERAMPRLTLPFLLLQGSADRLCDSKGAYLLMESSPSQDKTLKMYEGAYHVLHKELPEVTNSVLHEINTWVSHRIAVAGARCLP
# assay.method.text: 2-AG accumulation assay in rat brain homogenate
# Assay type: biochemical
# experimental.parameters: rat brain homogenate; compound 10 μM; 2-AG accumulation as percent of vehicle; read-out: Rat Brain 2AG % VehCntrl (%) @ 10 μM
quantity.kind: 2-AG accumulation, % of vehicle control at 10 µM (%)
Numbers only, in %.

Record excerpt, results attached:
Cc1nc(-c2cccc(Cl)c2)sc1C(=O)N1CC(N2CCN(C(=O)c3nccs3)CC2)C1	886
O=C(c1ccccc1)N1CCN(C2CN(C(=O)c3ccc(-c4ccc(Cl)c(C(F)(F)F)c4)cc3)C2)CC1	427
COc1ccc(-c2ccc(C(=O)N3CC(N4CCN(C(=O)c5nccs5)CC4)C3)cc2)cc1C=O	625
Cc1nc(-c2ccccc2)sc1C(=O)N1CC(N2CCN(C(=O)c3nccs3)CC2)C1	623
O=C(c1ccc2c(-c3ccccc3)cccc2c1)N1CC(N2CCN(C(=O)c3nccs3)CC2)C1	791

Kindly give each listed record's 2-AG accumulation, % of vehicle control at 10 µM.
1. O=C(c1ccccc1)N1CCN(C2CN(C(=O)c3ccc(SCc4cccc(Cl)c4)cc3)C2)CC1
2. O=C(CCc1ccc(Cl)c(Cl)c1)N1CC(N2CCN(C(=O)c3nccs3)CC2)C1
3. Cc1c(-c2ccccc2)oc2c(C(=O)N3CC(N4CCN(C(=O)c5nccs5)CC4)C3)cccc2c1=O
4. COc1cccc(-c2ccc(C(=O)N3CC(N4CCN(C(=O)c5nccs5)CC4)C3)cc2)c1
5. O=C(c1ccc(-c2ccccc2C(F)(F)F)cc1)N1CC(N2CCN(C(=O)c3nccs3)CC2)C1
6. O=C(c1ccccc1)N1CCN(C2CN(C(=O)c3ccc(-c4cccc(C(F)(F)F)c4)cc3)C2)CC1
7. Cc1nc(-c2ccc(C(F)(F)F)cc2)sc1C(=O)N1CC(N2CCN(C(=O)c3nccs3)CC2)C1

720
201
272
703
676
521
612

----------
purified wild type MGL (wt-MGLL 6H-11-313) (Homo sapiens) data, read-out pIC50
Numbers only, as −log10 of the molar value.

O=C(c1ccc(-n2ccc(C(F)(F)F)n2)cc1)N1CC(N2CCN(C(=O)c3nccs3)CC2)C1 [Cpd 1249]	6.22
NC(=O)c1cccc(-n2ccc3cc(C(=O)N4CC(N5CCN(C(=O)c6ccccc6)CC5)C4)ccc32)c1 [Cpd 594]	6.35
O=C(c1ccc2c(c1)OCCCO2)N1CC(N2CCN(C(=O)c3nccs3)CC2)C1 [Cpd 770]	6.13
O=C(c1ccccc1)N1CCN(C2CN(C(=O)c3ccc4c(ccn4-c4cc(F)cc(F)c4)c3)C2)CC1 [Cpd 580]	7.16

Give one value of pIC50 per listed compound.
1. CC(C)(C)c1ccc(C(=O)N2CC(N3CCN(C(=O)c4nccs4)CC3)C2)cc1 [Cpd 672]
2. Cc1cc(-c2ccccc2)ccc1C(=O)N1CC(N2CCN(C(=O)c3cscn3)CC2)C1 [Cpd 488]
3. O=C(c1ccccc1)N1CCN(C2CN(C(=O)c3cccc4[nH]c(-c5ccccc5)nc34)C2)CC1 [Cpd 601]
4. O=C(c1cn2cc(Br)ccc2n1)N1CC(N2CCN(C(=O)c3nccs3)CC2)C1 [Cpd 873]

7.77
6.42
5.81
4.83

Fill blank: measured pIC50 of the compound O=C(c1ccc2nc(C(F)(F)F)cc(Cl)c2c1)N1CCN(C2CN(C(=O)c3nccs3)C2)CC1 [Cpd 842] is ____.
5.26
